# measured.target: chicken gizzard smooth muscle myosin subfragment-1 chemically crosslinked to either cardiac or skeletal actin (Gallus gallus, UniProt P10587)
Entries and their IC50 values follow.
# number only, unit µM dropped from output

For orientation, consider the following solved cases.
compound	unit.name	val
CN(C)c1ccc(C(=O)NCc2cccnc2)c(NCCc2cccc(F)c2)n1	µM	4.92
CNC(=O)CCCCNc1ccc(C(=O)NCc2cccnc2)c(NCCc2cccc(F)c2)n1	µM	38
COC(=O)/C=C(\C)c1ccc(C(=O)NCc2cccnc2)c(NCCc2cccc(F)c2)n1	µM	3.45

Any idea what its IC50 is? The compound is `C/C=C/c1nc(NCCc2cccc(F)c2)c(C(=O)NCc2cccnc2CN)cc1F`
0.0805

Any idea what its IC50 is? The compound is `COC/C=C/c1ccc(C(=O)NCc2cccnc2)c(NCCc2cccc(F)c2)n1`
0.927

----------
# measured.target: chicken gizzard smooth muscle myosin subfragment-1 chemically crosslinked to either cardiac or skeletal actin (Gallus gallus, UniProt P10587)
pIC50: −log10 of the molar value.
Class boundaries, taken from values of pIC50, are as follows: band 1 (below 5), band 2 (5 to below 6), band 3 (6 or more)

compound	label
Cc1cccc(CNC(=O)c2cc(Br)cnc2NCCc2cccc(F)c2)n1	band 1
C/C=C/c1ccc(C(=O)NCc2cccnc2)c(NCCc2cccc(F)c2)n1	band 3
N#Cc1ccccc1-c1cnc(NCCc2cccc(F)c2)c(C(=O)NCc2cccc(CN)n2)c1	band 2
N#CNC(=N)c1ccc(C(=O)NCc2cccnc2)c(NCCc2cccc(F)c2)n1	band 3
CC(=O)N(C)c1ccc(C(=O)NCc2cccnc2)c(NCCc2cccc(F)c2)n1	band 1

Lab note: sort `C/C=C/c1nc(NCCc2cccc(F)c2)c(C(=O)NCc2cccnc2)cc1C#N` into the matching pIC50 band.
band 3

----------
# measured.target: chicken gizzard smooth muscle myosin subfragment-1 chemically crosslinked to either cardiac or skeletal actin (Gallus gallus, UniProt P10587)
Entries and their IC50 values follow.
# number only, unit µM dropped from output

For orientation, consider the following solved cases.
compound	val
O=C(NCc1cccnc1)c1ccc(NCc2cccnc2)nc1NCCc1cccc(F)c1	5.61
COCCNc1ccc(C(=O)NCc2cccnc2)c(NCCc2cccc(F)c2)n1	7.62
CN(C)C(=O)CCCNc1ccc(C(=O)NCc2cccnc2)c(NCCc2cccc(F)c2)n1	70.3
CCOC(C)c1ccc(C(=O)NCc2cccnc2)c(NCCc2cccc(F)c2)n1 (centres unmarked)	73

Any idea what its IC50 is? The compound is `CC(=O)c1ccc(C(=O)NCc2cccnc2)c(NCCc2cccc(F)c2)n1`
24.8

Any idea what its IC50 is? The compound is `COCCCc1ccc(C(=O)NCc2cccnc2)c(NCCc2cccc(F)c2)n1`
8.18

Any idea what its IC50 is? The compound is `CN(C)/C(=N/C#N)c1ccc(C(=O)NCc2cccnc2)c(NCCc2cccc(F)c2)n1`
5.19

Any idea what its IC50 is? The compound is `CNC(=O)CNC(=O)c1cc(-c2ccccc2)cnc1NCCc1cccc(F)c1`
15

Any idea what its IC50 is? The compound is `NCc1cccc(CNC(=O)c2cc(Br)cnc2NCCc2cccc(F)c2)n1`
15

Any idea what its IC50 is? The compound is `NC(=O)CCCNc1ccc(C(=O)NCc2cccnc2)c(NCCc2cccc(F)c2)n1`
42.8

Any idea what its IC50 is? The compound is `NCc1ncccc1CNC(=O)c1cc(F)cnc1NCCc1cccc(F)c1`
2.69
